meta.source: paper PMC3382068

molecular target: hIcmt (Homo sapiens)
Sequence (O60725 whole entry): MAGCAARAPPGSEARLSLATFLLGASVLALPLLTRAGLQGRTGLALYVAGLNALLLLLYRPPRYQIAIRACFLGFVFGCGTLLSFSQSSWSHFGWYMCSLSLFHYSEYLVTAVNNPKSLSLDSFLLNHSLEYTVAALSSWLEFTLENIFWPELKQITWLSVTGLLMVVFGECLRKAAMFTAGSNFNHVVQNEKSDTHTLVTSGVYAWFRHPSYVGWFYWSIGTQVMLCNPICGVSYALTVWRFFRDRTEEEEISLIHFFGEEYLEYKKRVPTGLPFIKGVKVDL
property: pKi
Scale note: pKi = -log10(concentration in M).

Q: Notebook: pull reported pKi for hIcmt (Homo sapiens), entry CC(C)=CC/C(=C/CSC[C@H](NC(=O)c1ccccc1Oc1ccccc1)C(=O)O)CCc1ccc(-c2ccccc2)cc1 [Compound 1b]
A: 6.30
